- Tested on: NCI-H650
- assay: relative viability (nuclei count vs DMSO), 5 days (fraction); higher = more cells survive
- details: first compound 0.1265 µM
Assign classes using reported relative viability values and the ranges bottom bin (below 0.7), middle bin (0.7 to below 0.9), top bin (0.9 or more), please.

| compound | category label |
| --- | --- |
| C[C@@H]1CN(CC(=O)Nc2ccc3c(c2)Cc2cccc(-c4cc(=O)cc(N5CCOCC5)o4)c2S3)C[C@H](C)O1 + C[C@]1(O)C[C@@H](c2nc(-c3ccc4ccc(-c5ccccc5)nc4c3)c3c(N)nccn32)C1 [Linsitinib] (partner 1 µM) | middle bin |
| COc1cc(N2CCC(C(N)=O)CC2)ccc1Nc1nc(N)c(Cl)c(Nc2ccccc2S(=O)(=O)C(C)C)n1 [HG-5-88-01] + COc1cccc2cc(-c3nc([C@H]4CC[C@H](C(=O)O)CC4)n4ncnc(N)c34)[nH]c12 [OSI-027] (partner 0.5 µM) | bottom bin |
| C[C@@H]1CN(CC(=O)Nc2ccc3c(c2)Cc2cccc(-c4cc(=O)cc(N5CCOCC5)o4)c2S3)C[C@H](C)O1 + COc1cccc2cc(-c3nc([C@H]4CC[C@H](C(=O)O)CC4)n4ncnc(N)c34)[nH]c12 [OSI-027] (partner 0.5 µM) | bottom bin |
| COc1cc(N2CCC(C(N)=O)CC2)ccc1Nc1nc(N)c(Cl)c(Nc2ccccc2S(=O)(=O)C(C)C)n1 [HG-5-88-01] + CC(C)C[C@H](NC(=O)[C@H](Cc1ccccc1)NC(=O)c1cnccn1)B(O)O [Bortezomib] (partner 0.002 µM) | middle bin |
| COc1cc(N2CCC(C(N)=O)CC2)ccc1Nc1nc(N)c(Cl)c(Nc2ccccc2S(=O)(=O)C(C)C)n1 [HG-5-88-01] + CS(=O)(=O)CCNCc1ccc(-c2ccc3ncnc(Nc4ccc(OCc5cccc(F)c5)c(Cl)c4)c3c2)o1 [Lapatinib] (partner 2 µM) | top bin |
| Clc1ccc(Nc2nnc(Cc3ccncc3)c3ccccc23)cc1 [Vatalanib] + COc1cccc2cc(-c3nc([C@H]4CC[C@H](C(=O)O)CC4)n4ncnc(N)c34)[nH]c12 [OSI-027] (partner 0.5 µM) | bottom bin |
| C[C@@H]1CN(CC(=O)Nc2ccc3c(c2)Cc2cccc(-c4cc(=O)cc(N5CCOCC5)o4)c2S3)C[C@H](C)O1 + CC(C)C[C@H](NC(=O)[C@H](Cc1ccccc1)NC(=O)c1cnccn1)B(O)O [Bortezomib] (partner 0.002 µM) | middle bin |
| COc1cc(N2CCC(C(N)=O)CC2)ccc1Nc1nc(N)c(Cl)c(Nc2ccccc2S(=O)(=O)C(C)C)n1 [HG-5-88-01] + Cc1nc(NC(=O)N2CCC[C@H]2C(N)=O)sc1-c1ccnc(C(C)(C)C(F)(F)F)c1 [Alpelisib] (partner 2 µM) | top bin |
| C[C@@H]1CN(CC(=O)Nc2ccc3c(c2)Cc2cccc(-c4cc(=O)cc(N5CCOCC5)o4)c2S3)C[C@H](C)O1 + CS(=O)(=O)CCNCc1ccc(-c2ccc3ncnc(Nc4ccc(OCc5cccc(F)c5)c(Cl)c4)c3c2)o1 [Lapatinib] (partner 2 µM) | middle bin |
| Clc1ccc(Nc2nnc(Cc3ccncc3)c3ccccc23)cc1 [Vatalanib] + N=C(N)NC(=N)NCCc1ccccc1 [Phenformin] (partner 250 µM) | bottom bin |
| COc1cc(N2CCC(C(N)=O)CC2)ccc1Nc1nc(N)c(Cl)c(Nc2ccccc2S(=O)(=O)C(C)C)n1 [HG-5-88-01] + COc1cc2c(Oc3ccc(NC(=O)C4(C(=O)Nc5ccc(F)cc5)CC4)cc3F)ccnc2cc1OCCCN1CCOCC1 [Foretinib] (partner 0.25 µM) | top bin |
| Clc1ccc(Nc2nnc(Cc3ccncc3)c3ccccc23)cc1 [Vatalanib] + CS(=O)(=O)CCNCc1ccc(-c2ccc3ncnc(Nc4ccc(OCc5cccc(F)c5)c(Cl)c4)c3c2)o1 [Lapatinib] (partner 2 µM) | middle bin |
| C[C@@H]1CN(CC(=O)Nc2ccc3c(c2)Cc2cccc(-c4cc(=O)cc(N5CCOCC5)o4)c2S3)C[C@H](C)O1 + NC(=O)Nc1cc(-c2cccc(F)c2)sc1C(=O)N[C@H]1CCCNC1 [AZD7762] (partner 0.2 µM) | middle bin |
| Clc1ccc(Nc2nnc(Cc3ccncc3)c3ccccc23)cc1 [Vatalanib] + Cc1cc(Nc2cc(N3CCN(C)CC3)nc(Sc3ccc(NC(=O)C4CC4)cc3)n2)n[nH]1 [Tozasertib] (partner 0.1 µM) | bottom bin |
